# Tgt: Recombinant human Farnesyl Pyrophosphate synthase (FPPS) (Homo sapiens, UniProt P14324)
# Construct: made in house
# Sequence (P14324 72-419 limits assumed): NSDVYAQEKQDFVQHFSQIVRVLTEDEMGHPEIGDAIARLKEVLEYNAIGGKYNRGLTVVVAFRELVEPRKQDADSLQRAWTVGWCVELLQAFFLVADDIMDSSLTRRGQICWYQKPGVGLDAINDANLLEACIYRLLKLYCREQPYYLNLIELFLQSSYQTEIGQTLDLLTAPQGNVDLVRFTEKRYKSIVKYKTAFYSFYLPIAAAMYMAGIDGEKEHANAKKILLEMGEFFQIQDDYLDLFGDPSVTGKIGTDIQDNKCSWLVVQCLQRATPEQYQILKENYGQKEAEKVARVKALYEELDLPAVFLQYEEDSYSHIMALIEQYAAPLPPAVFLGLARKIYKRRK
# Assay Comment: FPPS SPA (scintillation proximity FlashPlate assay of FPPS inhibition)
# Assay type: biochemical
# Stated Conditions: Example 15 table; FPPS SPA; read-out: IC50
Endpoint Label: log10 of IC50 (log10 of the value in µM)
Hello, just confirming the data are log10 of IC50 with units of µM.

1. CCN(CC)CCN(C)c1ccc(C(=O)O)c(OCc2cccc3ccccc23)c1 ... 1.42
2. CCNc1ccc(C(=O)O)c(OCc2cccc3ccccc23)c1 ... -0.14
3. O=C(O)c1ccc(NC2CCCC2)cc1OCc1cccc2ccccc12 ... -0.20

Turning now to a further record.
API: value(readout=log10 of IC50, system=Recombinant human Farnesyl Pyrophosphate synthase (FPPS) (Homo sapiens, UniProt P14324)) for record CCCNc1ccc(C(=O)O)c(OCc2cccc3ccccc23)c1 -0.43

====

Item-by-item account of pIC50
# Tgt: Recombinant human Farnesyl Pyrophosphate synthase (FPPS) (Homo sapiens, UniProt P14324)
# Construct: made in house
# Assay Comment: FPPS SPA (scintillation proximity FlashPlate assay of FPPS inhibition)
# Assay type: biochemical
# Stated Conditions: Example 15 table; FPPS SPA; read-out: IC50
When answering, recall that pIC50 equals minus log10 of the concentration in mol/L, and write that number alone.

Examples from the recorded data:
1) CN1CCN(c2ccc(C(=O)O)c(OCc3cccc4ccccc34)c2)CC1 [15 ba)] ... 4.41
2) CC(Nc1ccc(C(=O)O)c(OCc2cccc3ccccc23)c1)C(C)(C)C (stereo not shown) [15 aq)] ... 6.19

Turning now to a further record.
If you can, please state the reported pIC50 value of CN1CCCN(c2ccc(C(=O)O)c(OCc3cccc4ccccc34)c2)CC1 [15 at)] . 5.19

====

# Tgt: Recombinant human Farnesyl Pyrophosphate synthase (FPPS) (Homo sapiens, UniProt P14324)
# Construct: made in house
# Assay Comment: FPPS SPA (scintillation proximity FlashPlate assay of FPPS inhibition)
# Type: biochemical
# Stated Conditions: Example 15 table; FPPS SPA; read-out: IC50
Endpoint Label: IC50 (µM)
Form entry: value (µM) — number only.

1. O=C(O)c1ccc(N[C@H]2CC[C@H](O)CC2)cc1OCc1cccc2ccccc12 ... 0.19

If you can, please state the reported IC50 value of O=C(O)c1ccc(NC2CCCCCC2)cc1OCc1cccc2ccccc12 . 1.79

If you can, please state the reported IC50 value of COCCNc1ccc(C(=O)O)c(OCc2cccc3ccccc23)c1 . 8.1

If you can, please state the reported IC50 value of CN1CCC(Nc2ccc(C(=O)O)c(OCc3cccc4ccccc34)c2)CC1 . 4.75

If you can, please state the reported IC50 value of C[C@H](Nc1ccc(C(=O)O)c(OCc2cccc3ccccc23)c1)C1CCCCC1 . 3.52

If you can, please state the reported IC50 value of CC1CCC(Nc2ccc(C(=O)O)c(OCc3cccc4ccccc34)c2)CC1 (stereo not shown) . 1.24

If you can, please state the reported IC50 value of CC(=O)N1CCN(c2ccc(C(=O)O)c(OCc3cccc4ccccc34)c2)CC1 . 6.5
